- targetDesc: full-length human GLP-1R with an N-terminal FLAG tag (human, UniProt P43220 24-463)
- methodDescription: cell-based or functional assay
Starred links: 1 amine or outer side, 2 acyl side, 3 side chain; linkers in the order of their positions; H or OH if unused. Non-standard residues stand in square brackets, D forms with d. Groups on a side chain read outwards from the residue. No end group written: not given here. *: point of attachment. C18 diacid = O=C(O)CCCCCCCCCCCCCCCCC(=O)*; C17 diacid = O=C(O)CCCCCCCCCCCCCCCC(=O)*; γGlu = O=C(O)[C@H](CCC(=O)[*:2])N[*:1]; NMeY = CN[C@@H](Cc1ccc(O)cc1)C(=O)O; AEEA = NCCOCCOCC(=O)O; Aib = CC(C)(N)C(=O)O
// assign rule met if Human GLP1R cAMP EC50, HEK293T falls strictly below 50 nM, else rule not met (ties count as rule not met)

[NMeY][Aib]EGTFISDYSIALDR[Aib]AQ[Aib]K(2OEGgEgE‑C20 diacid)FVNWLLAQKG-OH [Compound No. 39] : rule met
[NMeY][Aib]EGTFISDYSIAK([GGPAPAP-C18 diacid])DR[Aib]AQ[Aib]DFVNWLLAQSPSSGAPPPS-OH [Compound No. 105] : rule not met
[NMeY][Aib]EGTFISDYSIALDRIHQQNFVNWLLAQK-NH2 (not fully specified (residue 30)) [Compound No. 5] : rule not met

Dear colleague, could you confirm whether Human GLP1R cAMP EC50, HEK293T of Y[Aib]EGTFISDYSIALDKIAQRK([AEEA-AEEA-γGlu-γGlu-C17 diacid])FVEWLLAQRG-OH [Compound No. 143] falls below 50 nM? Thanks.
rule met

Dear colleague, could you confirm whether Human GLP1R cAMP EC50, HEK293T of YXEGTFISDYSIAXDSXAQXDFVNWLLAQSG (N-methyl Tyr 1; Aib at 2,17,20; Lys(G5-C18 diacid) at 14; C-terminal OH) [Compound No. 60] falls below 50 nM? Thanks.
rule not met

Dear colleague, could you confirm whether Human GLP1R cAMP EC50, HEK293T of YXEGTFISDYSIXXDRAAQXDFVEWLLAQRG (N-terminus H; Aib at 2,13,20; Lys(G5-C18 diacid) at 14; C-terminal OH) [Compound No. 145] falls below 50 nM? Thanks.
rule met
